- test-system: 5-HT2C receptor (Homo sapiens)
- Construct: expressed in transfected cells; host or cells: HEK293T
- Sequence (P28335 33-458): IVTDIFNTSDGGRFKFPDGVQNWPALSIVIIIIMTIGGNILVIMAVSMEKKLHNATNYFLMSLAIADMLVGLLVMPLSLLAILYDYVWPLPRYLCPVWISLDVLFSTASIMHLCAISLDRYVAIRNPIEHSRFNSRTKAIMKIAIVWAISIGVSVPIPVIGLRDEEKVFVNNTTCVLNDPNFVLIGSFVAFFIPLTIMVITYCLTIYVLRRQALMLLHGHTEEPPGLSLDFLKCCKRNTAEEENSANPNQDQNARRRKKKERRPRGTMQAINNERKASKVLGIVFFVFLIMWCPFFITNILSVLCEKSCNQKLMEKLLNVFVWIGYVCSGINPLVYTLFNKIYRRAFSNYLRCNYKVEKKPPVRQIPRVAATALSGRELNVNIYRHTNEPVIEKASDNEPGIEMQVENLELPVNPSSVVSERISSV
- test: cell-based
- Format: cell-based
- condition-description: Table 2; at least three replicate trials; read-out: 5-HT2C BRET EC50
pEC50: −log10 of the molar value.
Entry flag: TRUE if pEC50 reaches 6; FALSE if it does not.

- molecule: "Oc1cc(Cl)ccc1CCNCc1ccccc1O [Cpd #131]"
  class-assignment: "TRUE"
- molecule: "COc1cc(C#N)ccc1CCNCc1ccc(Cl)cc1 [Cpd #14]"
  class-assignment: "FALSE"
- molecule: "COc1cc(C#N)ccc1CCNCc1ccccc1O [Cpd #113]"
  class-assignment: "TRUE"
- molecule: "N#Cc1ccc(CCNCc2ccccc2O)cc1 [Cpd #114]"
  class-assignment: "TRUE"
- molecule: "N#Cc1ccc(CCNCc2ccccc2O)c(C(F)(F)F)c1 [Cpd #137]"
  class-assignment: "TRUE"

Textbook exercise: given the entry COc1cc(C#N)ccc1CCNCc1cccc(Cl)c1 [Cpd #13] , state whether its pEC50 is greater than or equal to 6.
FALSE

Textbook exercise: given the entry CSc1ccccc1CCCNCCc1ccc(C#N)cc1O [Cpd #135] , state whether its pEC50 is greater than or equal to 6.
TRUE

Textbook exercise: given the entry N#Cc1ccc(CCNCc2ccccc2OC(F)(F)F)c(O)c1 [Cpd #124] , state whether its pEC50 is greater than or equal to 6.
TRUE

Textbook exercise: given the entry COc1cc(C#N)ccc1CCNCc1cccc2c1OCO2 [Cpd #65] , state whether its pEC50 is greater than or equal to 6.
TRUE

Textbook exercise: given the entry COc1cc(-c2ncccn2)ccc1CCNCc1ccccc1Cl [Cpd #104] , state whether its pEC50 is greater than or equal to 6.
FALSE

====

- test: plasma and brain PK predicted in humans
- condition-description: brain; Human (predicted); read-out: Brain/plasma Ratio
measured-parameter: Kp
Could you respond with only the numeric value?

Name the recorded Kp for COc1cc(C(F)(F)F)ccc1CCNCc1ccccc1O [Cpd #93] .
9.55

====

- test-system: 5-HT1F (Homo sapiens, UniProt P30939)
- Sequence (P30939 whole entry, species assumed): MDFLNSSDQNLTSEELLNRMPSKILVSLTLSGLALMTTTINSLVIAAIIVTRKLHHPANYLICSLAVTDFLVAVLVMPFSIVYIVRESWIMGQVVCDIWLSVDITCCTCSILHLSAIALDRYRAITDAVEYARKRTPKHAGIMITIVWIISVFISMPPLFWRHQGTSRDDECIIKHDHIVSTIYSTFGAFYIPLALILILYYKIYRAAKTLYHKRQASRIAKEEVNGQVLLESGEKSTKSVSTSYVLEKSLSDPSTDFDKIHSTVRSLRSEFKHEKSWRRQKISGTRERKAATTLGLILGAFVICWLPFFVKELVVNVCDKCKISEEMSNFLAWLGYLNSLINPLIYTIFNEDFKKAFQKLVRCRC
- test: 5-HT receptor activity panel (Table 3)
- Type: cell-based
- condition-description: Table 3; read-out: 5-HT1F EC50
measured-parameter: EC50 (nM)
Numbers only; they are read as nM.

Name the recorded EC50 for CSc1ccccc1CNCCc1ccc(C#N)cc1O [Cpd #109] .
582

====

- test: in vitro hepatocyte clearance, rat
- Format: in vitro ADME
- condition-description: Rat hepatocytes; read-out: In vitro T1/2
measured-parameter: half-life

- smiles: "CSc1ccccc1CNCCc1ccc(C#N)cc1O"
  half-life: "5.93 min"

Now for another entry.
Name the recorded half-life for "COc1cc(C(F)(F)F)ccc1CCNCc1ccccc1O" .
> 2.26 min

====

- test: plasma and brain PK predicted in humans
- condition-description: plasma; Human (predicted); read-out: Vz
measured-parameter: Vd (L/kg)
Numbers only; they are read as L/kg.

- compound: "CSc1ccccc1CNCCc1ccc(C#N)cc1O [Cpd #109]"
  Vd [L/kg]: 2.78

Now for another entry.
Name the recorded Vd for COc1cc(C(F)(F)F)ccc1CCNCc1ccccc1O [Cpd #93] .
6.39

====

- test: plasma and brain PK in mice
- Format: in vivo
- condition-description: mouse, brain, read-out: Brain/plasma Ratio
- Text: Table 7a and Table 7b summarize, among other things, the observed plasma and Brain P K properties in animals, and the observed plasma and Brain P K properties predicted in humans, for compound 109 in Table 7a and compound 93 for Table 7b: […]
measured-parameter: Kp
Could you respond with only the numeric value?

Name the recorded Kp for "COc1cc(C(F)(F)F)ccc1CCNCc1ccccc1O" .
15.6

====

Measured EC50 by item
- test-system: 5-HT2C receptor (Homo sapiens)
- Construct: expressed in transfected cells; host or cells: HEK293T
- test: cell-based
- Assay type: cell-based
- condition-description: Table 2; at least three replicate trials; read-out: 5-HT2C BRET EC50
Kindly report the value followed by its unit.

Observe how each entry below is paired with its result.
- compound: "COc1cc(-c2cncnc2)ccc1CCNCc1ccccc1Cl [Cpd #105]"
  measured-parameter: "EC50"
  test-result: "1490 nM"
- compound: "CSc1ccccc1CNC[C@@H]1CCc2cc(C#N)cc(O)c21 [Cpd #142]"
  measured-parameter: "EC50"
  test-result: "17600 nM"
- compound: "COc1cccc(CNCCc2ccc(C#N)cc2OC)c1 [Cpd #28]"
  measured-parameter: "EC50"
  test-result: "873 nM"
- compound: "COc1cc(C#N)ccc1CCNC1COc2ccccc21 (stereo not drawn) [Cpd #52]"
  measured-parameter: "EC50"
  test-result: "12100 nM"
- compound: "N#Cc1ccc(CCNCc2ccccc2O)c(OC(F)(F)F)c1 [Cpd #115]"
  measured-parameter: "EC50"
  test-result: "380 nM"

Now for another entry.
Name the recorded EC50 for COc1cc(C#N)ccc1CCNCc1ccccc1F [Cpd #6] .
2120 nM

====

- test: in vitro hepatocyte clearance, rat
- Format: in vitro ADME
- condition-description: rat, hepatocytes; read-out: Scale-up Clint
- Experimental: Additional experimentation was performed on compound 109. Table 6 summarizes, among other things, the anticipated hepatic clearance of compound 109 in various species, as specified in Table 6 and as determined by calculating the in vitro hepatocyte clearance over time and scaling such rate with such species' hepatocyte count and the anticipated liver blood flow rate in such species.
measured-parameter: CLint scaled (mL/min/kg)
Numbers only; they are read as mL/min/kg.

Name the recorded CLint scaled for CSc1ccccc1CNCCc1ccc(C#N)cc1O [Cpd #109] .
1090

====

- test: in vitro hepatocyte clearance, dog
- Type: in vitro ADME
- condition-description: Dog hepatocytes; read-out: In vitro T1/2
Measured half-life by item
Numbers only; they are read as min.

- compound: "COc1cc(C(F)(F)F)ccc1CCNCc1ccccc1O [Cpd #93]"
  unit-of-measure: "min"
  test-result: 4.11

Now for another entry.
Name the recorded half-life for CSc1ccccc1CNCCc1ccc(C#N)cc1O [Cpd #109] .
6.96

====

- test: plasma PK in dog
- Type: in vivo
- condition-description: dog, read-out: Cltot (converted)
measured-parameter: clearance (mL/min/kg)
Numbers only; they are read as mL/min/kg.

- smiles: "COc1cc(C(F)(F)F)ccc1CCNCc1ccccc1O"
  clearance [mL/min/kg]: 53.1

Now for another entry.
Name the recorded clearance for "CSc1ccccc1CNCCc1ccc(C#N)cc1O" .
39.7

====

- test-system: human ether-a-go-go-related gene (hERG) K+ channel (Homo sapiens, UniProt Q12809)
- Construct: Eurofins
- Sequence (Q12809 whole entry): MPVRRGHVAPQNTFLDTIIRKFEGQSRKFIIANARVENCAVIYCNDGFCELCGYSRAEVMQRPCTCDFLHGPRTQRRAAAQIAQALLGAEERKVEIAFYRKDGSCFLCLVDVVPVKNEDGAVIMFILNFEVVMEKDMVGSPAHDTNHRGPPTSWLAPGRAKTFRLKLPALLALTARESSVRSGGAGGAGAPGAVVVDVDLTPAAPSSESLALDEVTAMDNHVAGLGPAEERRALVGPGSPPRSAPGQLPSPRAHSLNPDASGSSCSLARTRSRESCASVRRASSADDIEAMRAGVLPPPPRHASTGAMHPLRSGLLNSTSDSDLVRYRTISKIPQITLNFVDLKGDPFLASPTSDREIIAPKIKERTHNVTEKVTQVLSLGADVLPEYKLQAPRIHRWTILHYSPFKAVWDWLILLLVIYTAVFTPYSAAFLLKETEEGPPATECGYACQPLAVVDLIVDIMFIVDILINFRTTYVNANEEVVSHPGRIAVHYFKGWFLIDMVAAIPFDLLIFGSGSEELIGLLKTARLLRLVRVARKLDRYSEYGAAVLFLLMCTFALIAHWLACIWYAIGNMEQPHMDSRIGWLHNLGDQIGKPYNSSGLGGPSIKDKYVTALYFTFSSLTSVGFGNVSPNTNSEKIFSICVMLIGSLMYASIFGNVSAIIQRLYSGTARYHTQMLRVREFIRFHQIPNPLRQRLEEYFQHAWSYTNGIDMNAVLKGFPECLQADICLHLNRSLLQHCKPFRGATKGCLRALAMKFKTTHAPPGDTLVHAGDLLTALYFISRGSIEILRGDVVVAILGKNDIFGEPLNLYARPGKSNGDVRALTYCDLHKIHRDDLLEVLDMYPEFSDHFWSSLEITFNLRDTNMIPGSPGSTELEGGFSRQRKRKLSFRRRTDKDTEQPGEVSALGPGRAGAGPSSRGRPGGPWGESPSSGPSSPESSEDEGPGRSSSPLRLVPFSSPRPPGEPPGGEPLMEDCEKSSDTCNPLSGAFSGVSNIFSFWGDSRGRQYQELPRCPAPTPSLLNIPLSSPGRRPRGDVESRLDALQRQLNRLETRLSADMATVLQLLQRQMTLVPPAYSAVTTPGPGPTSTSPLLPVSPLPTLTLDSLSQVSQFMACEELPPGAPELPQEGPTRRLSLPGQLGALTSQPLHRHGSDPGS
- test: Eurofins hERG Qube APC Assay
- Type: cell-based
- condition-description: Table 4
Measured IC50 (hERG)/EC50 (5-HT2A) ratio by item
Could you respond with only the numeric value?

- compound: "COc1cc(C#N)ccc1CCNCc1cccc2c1OCO2 [Cpd #65]"
  IC50 (hERG)/EC50 (5-HT2A) ratio: 102
- compound: "COc1cccc(CNCCc2ccc(C#N)cc2OC)c1 [Cpd #28]"
  IC50 (hERG)/EC50 (5-HT2A) ratio: 19
- compound: "Oc1cc(Cl)ccc1CCNCc1ccccc1O [Cpd #131]"
  IC50 (hERG)/EC50 (5-HT2A) ratio: 624
- compound: "COc1cc(C(F)(F)F)ccc1CCNCc1ccccc1O [Cpd #93]"
  IC50 (hERG)/EC50 (5-HT2A) ratio: 517

Name the recorded IC50 (hERG)/EC50 (5-HT2A) ratio for CSc1ccccc1CNCCc1ccc(C#N)cc1O [Cpd #109] .
604

Name the recorded IC50 (hERG)/EC50 (5-HT2A) ratio for COc1cc(C#N)ccc1CCNCc1ccccc1Cl [Cpd #12] .
17

Name the recorded IC50 (hERG)/EC50 (5-HT2A) ratio for COc1cc(C#N)ccc1CCNCc1ccccc1SC [Cpd #108] .
742

Name the recorded IC50 (hERG)/EC50 (5-HT2A) ratio for COc1cc(C#N)ccc1CCNCc1cccc2occc12 [Cpd #64] .
30

Name the recorded IC50 (hERG)/EC50 (5-HT2A) ratio for COc1cc(C#N)c(F)cc1CCNCc1ccccc1O [Cpd #117] .
237

Name the recorded IC50 (hERG)/EC50 (5-HT2A) ratio for COc1cc(C#N)ccc1CCNCc1cccc2c1CCO2 [Cpd #63] .
12

Name the recorded IC50 (hERG)/EC50 (5-HT2A) ratio for CSc1ccc(CCNCc2ccccc2O)c(O)c1 [Cpd #122] .
564

Name the recorded IC50 (hERG)/EC50 (5-HT2A) ratio for Oc1ccccc1CNCC(O)c1ccc(C(F)(F)F)cc1OCc1ccccc1 (stereo not shown) [Reference Compound 1a, reference compound] .
5

Name the recorded IC50 (hERG)/EC50 (5-HT2A) ratio for COc1cc(C#N)ccc1CCNCc1ccccc1OC [Cpd #27] .
476
